- experimentalSystem: serum proteins
- methodDescription: 90% serum, 30 kDa ultrafiltration, HPLC
assayMetric: Protein binding (%)

query: Which Protein binding (%) value belongs to HFCWNVCVYRNGVRVCHRRCN [SEQ ID NO: 98] ?
result: 77

query: Lookup GFCGRVCVYRNGVRTCYRRCN [SEQ ID NO: 171]
result: 84

query: Same thing, different binder: GFCWNVCVYRNGVRWCHRRCN [SEQ ID NO: 253]
result: 94

query: Now give it for GFCWRVCASRNGLRVCYRRCN [SEQ ID NO: 435] too.
result: 85
